System: human G2 acute lymphoblastic leukemia (ALL) cells
Experiment: Flow cytometry cell-based assay: inhibition of soluble VCAM-1 binding to G2 ALL cells
Conditions: Table 12; inhibition of sVCAM-1 binding to human G2 ALL cells; read-out: sVCAM-1 IC50
Method: Compounds were tested for their ability to inhibit the binding of soluble VCAM-1 to human G2 acute lymphoblastic leukemia (ALL) cells. Briefly, G2 ALL cells are pre-incubated with increasing concentrations (0.001 to 1000 nM) of compounds for 30 minutes. […] Afterwards, cells are washed and VCAM-1 is detected using PE-conjugated secondary mAbs. […] The percentage of VCAM-1 binding cells was then determined by flow cytometry. […]
Parameter: pIC50. Scope: all listed entries.
Schema: pIC50 number; meaning minus log10 of the concentration expressed in molar units.

// known answers, use as guide
CCOCc1cc(OC)c(-c2ccc(C[C@H](NC(=O)[C@]3(C)CCCN3S(=O)(=O)c3ccccc3)C(=O)O)cc2)c(OC)c1 | 7.93
COc1cc(CF)cc(OC)c1-c1ccc(C[C@H](NC(=O)c2c(Cl)cc(C(=O)O)cc2Cl)C(=O)O)cc1 | 8.80
COc1cc(CO)cc(OC)c1-c1ccc(C[C@H](NC(=O)c2c(Cl)cc(C(=O)O)cc2Cl)C(=O)O)cc1 | 9.33
COc1cc(C(N)=O)cc(OC)c1-c1ccc(C[C@H](NC(=O)c2c(Cl)cc(C(=O)O)cc2Cl)C(=O)O)cc1 | 7.14

Q) // returns reported pIC50 for input CCOCc1cc(OC)c(-c2ccc(C[C@H](NC(=O)c3c(Cl)cccc3Cl)C(=O)O)cc2C(C)O)c(OC)c1 (stereo partly shown)
A) 8.48

Q) Next record, please: CCOCc1cc(OC)c(-c2ccc(C[C@H](NC(=O)[C@]3(C)CCCN3S(=O)(=O)c3cc(Cl)cc(Cl)c3)C(=O)O)cc2)c(OC)c1
A) 8.61

Q) Next record, please: COc1cc(C(=O)O)cc(OC)c1-c1ccc(C[C@H](NC(=O)c2c(Cl)cc(C(=O)O)cc2Cl)C(=O)O)cc1
A) 6.66

---

tested on: human G2 acute lymphoblastic leukemia (ALL) cells; assay: Flow cytometry cell-based assay: inhibition of soluble VCAM-1 binding to G2 ALL cells; details: flow cytometry, FIG. 6, 7, 10, 11
recorded-endpoint: inhibition of sVCAM-1 binding compared with other inhibitors

COCCOCCOCCOCc1cc(OC)c(-c2ccc(C[C@H](NC(=O)[C@@H]3CCN3S(=O)(=O)c3cc(Cl)cc(Cl)c3)C(=O)O)cc2)c(OC)c1 [Compound 2088] | inhibition was greatest
COCCOCc1cc(OC)c(-c2ccc(C[C@H](NC(=O)[C@@H]3CCN3S(=O)(=O)c3cc(Cl)cc(Cl)c3)C(=O)O)cc2)c(OC)c1 [Compound 1746] | inhibition was greatest

---

tested on: human G2 acute lymphoblastic leukemia (ALL) cells; test: Flow cytometry cell-based assay: inhibition of soluble VCAM-1 binding to G2 ALL cells; conditions: Table 12; inhibition of sVCAM-1 binding to human G2 ALL cells; read-out: sVCAM-1 IC50
Parameter: IC50. Scope: all listed entries.
Report the value in nM with no unit label.

COc1cc(C(C)(C)O)cc(OC)c1-c1ccc(C[C@H](NC(=O)c2c(Cl)cc(C(=O)O)cc2Cl)C(=O)O)cc1 | 70
CCOCc1cc(OC)c(-c2ccc(C[C@H](NC(=O)c3c(Cl)cc(C(=O)O)cc3Cl)C(=O)O)cc2)c(OC)c1 | 0.58

Q) // returns reported IC50 for input CCOCc1cc(OC)c(-c2ccc(C[C@H](NC(=O)[C@@H]3CCCN3S(=O)(=O)c3ccccc3)C(=O)O)cc2)c(OC)c1
A) 0.83

---

system: human G2 acute lymphoblastic leukemia (ALL) cells; experiment: Flow cytometry cell-based assay: inhibition of soluble VCAM-1 binding to G2 ALL cells; settings: read-out: sVCAM-1 IC50; Table 12; inhibition of sVCAM-1 binding to human G2 ALL cells
recorded-endpoint: pIC50
Schema: pIC50 number; meaning minus log10 of the concentration expressed in molar units.

Q) // returns reported pIC50 for input CCOCc1cc(OC)c(-c2ccc(C[C@H](NC(=O)[C@@H]3CCCN3S(=O)(=O)c3cc(Cl)cc(Cl)c3)C(=O)O)cc2)c(OC)c1
A) 9.31
